test: Mouse PK study (i.v. and p.o.); format: in vivo; details: plasma, iv, male CD1 mice, 1 mg/kg i.v.
We use 20 mL/min/kg as the dividing line for clearance: on or above the line is Met, below is Not met.

Problem: Can C[C@@]1(O)CC[C@H]2[C@H](CC[C@@H]3[C@@H]2CC[C@]2(C)[C@@H](C(=O)Cn4nnn(CC5CC5)c4=O)CC[C@@H]32)C1 be said to have clearance at or above 20 mL/min/kg?
Solution: Met

Problem: clearance >= 20 mL/min/kg for CC(C)n1nnn(CC(=O)[C@H]2CC[C@H]3[C@@H]4CC[C@@H]5C[C@](C)(O)CC[C@@H]5[C@H]4CC[C@]23C)c1=O ?
Solution: Met

Problem: Reported clearance reaches at least 20 mL/min/kg for C[C@@]1(O)CC[C@H]2[C@H](CC[C@@H]3[C@@H]2CC[C@]2(C)[C@@H](C(=O)Cn4nnn(-c5cccnc5)c4=O)CC[C@@H]32)C1 ?
Solution: Met

Problem: Textbook exercise: given the entry C[C@@]1(O)CC[C@H]2[C@H](CC[C@@H]3[C@@H]2CC[C@]2(C)[C@@H](C(=O)Cn4nnn(-c5ccn[nH]5)c4=O)CC[C@@H]32)C1 , state whether its clearance is greater than or equal to 20 mL/min/kg.
Solution: Not met

Problem: Test whether the compound C[C@@]1(O)CC[C@H]2[C@H](CC[C@@H]3[C@@H]2CC[C@]2(C)[C@@H](C(=O)Cn4nnn(C5CCCC5)c4=O)CC[C@@H]32)C1 records clearance of 20 mL/min/kg or higher.
Solution: Met

Problem: Please check the record Cn1nccc1-n1nnn(CC(=O)[C@H]2CC[C@H]3[C@@H]4CC[C@@H]5C[C@](C)(O)CC[C@@H]5[C@H]4CC[C@]23C)c1=O and state if its clearance is at or above 20 mL/min/kg.
Solution: Not met

Problem: Given the entry C[C@@]1(O)CC[C@H]2[C@H](CC[C@@H]3[C@@H]2CC[C@]2(C)[C@@H](C(=O)Cn4nnn(-c5ccccc5)c4=O)CC[C@@H]32)C1 , answer whether its clearance meets or surpasses 20 mL/min/kg.
Solution: Not met

Problem: Is it the case that C[C@@]1(O)CC[C@H]2[C@H](CC[C@@H]3[C@@H]2CC[C@]2(C)[C@@H](C(=O)Cn4nnn(-c5ccncc5)c4=O)CC[C@@H]32)C1 has clearance reaching or exceeding 20 mL/min/kg?
Solution: Met

Problem: Could you please find out whether COc1ccc(-n2nnn(CC(=O)[C@H]3CC[C@H]4[C@@H]5CC[C@@H]6C[C@](C)(O)CC[C@@H]6[C@H]5CC[C@]34C)c2=O)cc1 has clearance that meets 20 mL/min/kg or exceeds it?
Solution: Met

Problem: Determine whether this compound has clearance no lower than 20 mL/min/kg: CCn1nnn(CC(=O)[C@H]2CC[C@H]3[C@@H]4CC[C@@H]5C[C@](C)(O)CC[C@@H]5[C@H]4CC[C@]23C)c1=O
Solution: Met

* * *

experiment: Mouse PK study (i.v. and p.o.); type: in vivo; settings: plasma, po, male CD1 mice, 5 mg/kg p.o. vs 1 mg/kg i.v.
Where bioavailability equals or exceeds 20%, the correct label is MET; where it does not, the label is NOT MET.

Problem: Is the recorded value of bioavailability equal to or greater than 20% for this molecule? CC(C)n1nnn(CC(=O)[C@H]2CC[C@H]3[C@@H]4CC[C@@H]5C[C@](C)(O)CC[C@@H]5[C@H]4CC[C@]23C)c1=O [Example 4]
Solution: MET

Problem: Say whether CCn1nnn(CC(=O)[C@H]2CC[C@H]3[C@@H]4CC[C@@H]5C[C@](C)(O)CC[C@@H]5[C@H]4CC[C@]23C)c1=O [Example 3] shows bioavailability of 20% or more.
Solution: MET

Problem: Answer whether bioavailability of C[C@@]1(O)CC[C@H]2[C@H](CC[C@@H]3[C@@H]2CC[C@]2(C)[C@@H](C(=O)Cn4nnn(-c5cccc(F)c5)c4=O)CC[C@@H]32)C1 [Example 12] is greater than or equal to 20%.
Solution: MET

Problem: Item COc1cccc(-n2nnn(CC(=O)[C@H]3CC[C@H]4[C@@H]5CC[C@@H]6C[C@](C)(O)CC[C@@H]6[C@H]5CC[C@]34C)c2=O)c1 [Example 16] with bioavailability of 20% or above?
Solution: NOT MET
